assay: AUC(0 to t) in Sprague-Dawley rat at 10 mg/kg, iv after 0.083 to 24 hrs by LC-MS/MS analysis; type: ADME, organism-based; design: route intravenous, time upper 24 hrs, time lower 0.083 hrs, dose 10 mg/kg; details: in vivo

{"compound": "O=C(/C=C/c1cc(Cl)ccc1-n1cnnn1)N[C@@H](CC(=O)N1CCN(c2ccccc2)CC1)C(=O)Nc1ccc(C(=O)O)cc1", "unitLabel": "ng·h/mL", "AUC(0-t)": 18300}

----------
molecular target: Coagulation factor XI (Homo sapiens); conditions: dose 50.0 nM, time 1.0 hrs
Sequence (P03951 19-387 limits assumed): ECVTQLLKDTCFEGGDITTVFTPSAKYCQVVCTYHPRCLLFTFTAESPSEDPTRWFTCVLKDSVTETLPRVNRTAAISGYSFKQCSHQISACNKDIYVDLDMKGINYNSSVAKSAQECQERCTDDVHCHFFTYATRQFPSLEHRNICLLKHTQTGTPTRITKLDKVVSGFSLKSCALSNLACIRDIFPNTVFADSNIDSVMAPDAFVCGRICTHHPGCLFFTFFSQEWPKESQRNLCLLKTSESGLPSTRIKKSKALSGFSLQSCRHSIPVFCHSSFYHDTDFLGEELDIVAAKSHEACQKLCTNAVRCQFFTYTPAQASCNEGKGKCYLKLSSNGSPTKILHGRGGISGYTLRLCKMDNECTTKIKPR
Sequence (P03951 388-625 limits assumed): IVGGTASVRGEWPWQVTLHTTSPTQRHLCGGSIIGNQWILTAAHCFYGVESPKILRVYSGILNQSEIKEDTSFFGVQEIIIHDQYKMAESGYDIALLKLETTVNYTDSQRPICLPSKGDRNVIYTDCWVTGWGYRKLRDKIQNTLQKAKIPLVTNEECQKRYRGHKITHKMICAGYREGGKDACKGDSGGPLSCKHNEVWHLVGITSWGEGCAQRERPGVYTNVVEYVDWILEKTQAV

{"compound": "COc1ccc(CN(CC(=O)Nc2ccc(C(=O)O)cc2)C(=O)/C=C/c2cc(Cl)ccc2-n2cnnn2)cc1", "limitQualifier": "=", "inhibition [%]": 8.9}
{"compound": "CN1CCCN(C(=O)CC[C@H](NC(=O)/C=C/c2cc(Cl)ccc2-n2cnnn2)C(=O)Nc2ccc(C(=O)O)cc2)CC1", "limitQualifier": "=", "inhibition [%]": 30.1}
{"compound": "CC(=O)N1CCN(C(=O)C[C@H](NC(=O)/C=C/c2cc(Cl)ccc2-n2cnnn2)C(=O)Nc2ccc(C(=O)O)cc2)CC1", "limitQualifier": "=", "inhibition [%]": 23.2}
{"compound": "O=C(/C=C/c1cc(Cl)ccc1-n1cnnn1)N[C@@H](CC(=O)N1CCN(CCO)CC1)C(=O)Nc1ccc(C(=O)O)cc1", "limitQualifier": "=", "inhibition [%]": 60.2}
{"compound": "O=C(/C=C/c1cc(Cl)ccc1-n1cnnn1)N[C@@H](CCC(=O)N1CCS(=O)(=O)CC1)C(=O)Nc1ccc(C(=O)O)cc1", "limitQualifier": "=", "inhibition [%]": 2.6}
{"compound": "O=C(/C=C/c1cc(Cl)ccc1-n1cnnn1)N[C@@H](CC(=O)N1CCN(CC2CC2)CC1)C(=O)Nc1ccc(C(=O)O)cc1", "limitQualifier": "=", "inhibition [%]": 65.7}
{"compound": "O=C(O)C[C@H](NC(=O)/C=C/c1cc(Cl)ccc1-n1cnnn1)C(=O)Nc1ccc(C(=O)O)cc1", "limitQualifier": "=", "inhibition [%]": 2.1}
{"compound": "O=C(/C=C/c1cc(Cl)ccc1-n1cnnn1)N[C@@H](CC(=O)N1CCN(c2ccccc2)CC1)C(=O)Nc1ccc(C(=O)O)cc1", "limitQualifier": "=", "inhibition [%]": 59.4}
{"compound": "CC(C)N1CCN(C(=O)CC[C@H](NC(=O)/C=C/c2cc(Cl)ccc2-n2cnnn2)C(=O)Nc2ccc(C(=O)O)cc2)CC1", "limitQualifier": "=", "inhibition [%]": 20.9}
{"compound": "O=C(/C=C/c1cc(Cl)ccc1-n1cnnn1)N[C@@H](CCC(=O)N1CCN(Cc2cccc(Cl)c2)CC1)C(=O)Nc1ccc(C(=O)O)cc1", "limitQualifier": "=", "inhibition [%]": 3.8}
{"compound": "CCCCN1CCN(C(=O)C[C@H](NC(=O)/C=C/c2cc(Cl)ccc2-n2cnnn2)C(=O)Nc2ccc(C(=O)O)cc2)CC1", "limitQualifier": "=", "inhibition [%]": 51.5}
{"compound": "CCc1ccc(CN(CC(=O)Nc2ccc(C(=O)O)cc2)C(=O)/C=C/c2cc(Cl)ccc2-n2cnnn2)cc1", "limitQualifier": "=", "inhibition [%]": 3.6}
{"compound": "O=C(/C=C/c1cc(Cl)ccc1-n1cnnn1)NCC(=O)Nc1ccc(C(=O)O)cc1", "limitQualifier": "<", "inhibition [%]": 5}
{"compound": "CN(C)C1CCN(C(=O)CC[C@H](NC(=O)/C=C/c2cc(Cl)ccc2-n2cnnn2)C(=O)Nc2ccc(C(=O)O)cc2)CC1", "limitQualifier": "=", "inhibition [%]": 7.5}
{"compound": "O=C(/C=C/c1cc(Cl)ccc1-n1cnnn1)N[C@@H](CCC(=O)N1CCCCC1)C(=O)Nc1ccc(C(=O)O)cc1", "limitQualifier": "=", "inhibition [%]": 16.1}
{"compound": "O=C(/C=C/c1cc(Cl)ccc1-n1cnnn1)N[C@@H](CC(=O)N1CCC(O)CC1)C(=O)Nc1ccc(C(=O)O)cc1", "limitQualifier": "=", "inhibition [%]": 12.3}
{"compound": "O=C(O)CC[C@H](NC(=O)/C=C/c1cc(Cl)ccc1-n1cnnn1)C(=O)Nc1ccc(C(=O)O)cc1", "limitQualifier": "=", "inhibition [%]": 6.6}
{"compound": "O=C(CN(Cc1ccccc1)C(=O)/C=C/c1cccc(Cl)c1)Nc1ccc(C(=O)O)cc1", "limitQualifier": "=", "inhibition [%]": 7.9}
{"compound": "Cc1ccc(CN2CCN(C(=O)CC[C@H](NC(=O)/C=C/c3cc(Cl)ccc3-n3cnnn3)C(=O)Nc3ccc(C(=O)O)cc3)CC2)cc1", "limitQualifier": "=", "inhibition [%]": 19.4}
{"compound": "Cc1ccc(CN(CC(=O)Nc2ccc(C(=O)O)cc2)C(=O)/C=C/c2cc(Cl)ccc2-n2cnnn2)cc1", "limitQualifier": "<", "inhibition [%]": 5}
{"compound": "O=C(/C=C/c1cc(Cl)ccc1-n1cnnn1)N[C@@H](CCC(=O)N1CCN(CC2CC2)CC1)C(=O)Nc1ccc(C(=O)O)cc1", "limitQualifier": "=", "inhibition [%]": 41.7}
{"compound": "CCCCN1CCN(C(=O)CC[C@H](NC(=O)/C=C/c2cc(Cl)ccc2-n2cnnn2)C(=O)Nc2ccc(C(=O)O)cc2)CC1", "limitQualifier": "=", "inhibition [%]": 39.3}
{"compound": "O=C(/C=C/c1cc(Cl)ccc1-n1cnnn1)N[C@@H](CC(=O)N1CCCN(CC2CC2)CC1)C(=O)Nc1ccc(C(=O)O)cc1", "limitQualifier": "=", "inhibition [%]": 34.7}
{"compound": "O=C(CN(Cc1ccc(F)cc1)C(=O)/C=C/c1cc(Cl)ccc1-n1cnnn1)Nc1ccc(C(=O)O)cc1", "limitQualifier": "=", "inhibition [%]": 7.2}
{"compound": "CC1CCN(C(=O)CC[C@H](NC(=O)/C=C/c2cc(Cl)ccc2-n2cnnn2)C(=O)Nc2ccc(C(=O)O)cc2)CC1", "limitQualifier": "=", "inhibition [%]": 3.1}

----------
test: AUC(0 to infinity) in Sprague-Dawley rat at 10 mg/kg, iv after 0.083 to 24 hrs by LC-MS/MS analysis; type: ADME, organism-based; set-up: route intravenous, dose 10 mg/kg, time upper 24 hrs, time lower 0.083 hrs; conditions: in vivo

{"compound": "O=C(/C=C/c1cc(Cl)ccc1-n1cnnn1)N[C@@H](CC(=O)N1CCN(c2ccccc2)CC1)C(=O)Nc1ccc(C(=O)O)cc1", "AUC(0-inf) [ng·h/mL]": 18400}

----------
Documented Ratio IC50 across a set of compounds
species on record: Homo sapiens; test: Selectivity index, ratio of IC50 for plasma kallikrein (unknown origin) to IC50 for coagulation factor XIa (unknown origin)

{"compound": "CC(C)N1CCN(C(=O)C[C@H](NC(=O)/C=C/c2cc(Cl)ccc2-n2cnnn2)C(=O)Nc2ccc(C(=O)O)cc2)CC1", "Ratio IC50": 16}
{"compound": "CCN1CCN(C(=O)C[C@H](NC(=O)/C=C/c2cc(Cl)ccc2-n2cnnn2)C(=O)Nc2ccc(C(=O)O)cc2)CC1", "Ratio IC50": 106}
{"compound": "CCCCN1CCN(C(=O)CC[C@H](NC(=O)/C=C/c2cc(Cl)ccc2-n2cnnn2)C(=O)Nc2ccc(C(=O)O)cc2)CC1", "Ratio IC50": 30}
{"compound": "CC(=O)N1CCN(C(=O)C[C@H](NC(=O)/C=C/c2cc(Cl)ccc2-n2cnnn2)C(=O)Nc2ccc(C(=O)O)cc2)CC1", "Ratio IC50": 226}
{"compound": "O=C(/C=C/c1cc(Cl)ccc1-n1cnnn1)N[C@@H](CC(=O)N1CCN(Cc2ccccc2)CC1)C(=O)Nc1ccc(C(=O)O)cc1", "Ratio IC50": 35}
{"compound": "O=C(/C=C/c1cc(Cl)ccc1-n1cnnn1)N[C@@H](CC(=O)N1CCSCC1)C(=O)Nc1ccc(C(=O)O)cc1", "Ratio IC50": 756}
{"compound": "O=C(/C=C/c1cc(Cl)ccc1-n1cnnn1)N[C@@H](CC(=O)N1CCN(CCO)CC1)C(=O)Nc1ccc(C(=O)O)cc1", "Ratio IC50": 295}
{"compound": "O=C(/C=C/c1cc(Cl)ccc1-n1cnnn1)N[C@@H](CC(=O)N1CCCN(CC2CC2)CC1)C(=O)Nc1ccc(C(=O)O)cc1", "Ratio IC50": 21}
{"compound": "O=C(/C=C/c1cc(Cl)ccc1-n1cnnn1)N[C@@H](CCC(=O)N1CCSCC1)C(=O)Nc1ccc(C(=O)O)cc1", "Ratio IC50": 50}

----------
target: UniProt:P00734
pIC50: −log10 of the molar value.

{"compound": "O=C(/C=C/c1cc(Cl)ccc1-n1cnnn1)N[C@@H](CC(=O)N1CCN(c2ccccc2)CC1)C(=O)Nc1ccc(C(=O)O)cc1", "pIC50": 3.34}
